- SYSTEM_TESTED: sMafGDBD (UniProt O15525 1-162)
- EXPERIMENTAL_DETAILS: EMSA; apparent; homodimer; 150 mM NaCl, 50 mM HEPES pH 7.9, 10% glycerol, 1 mM TCEP, 1 mM DTT, 2 mM MgCl2; 3 nM DNA; TEV and 3C 50 ug/mL each, 4 h 25 °C; competition then O/N 4 °C; gels 4 °C in 1X TBE
- ASSAY_CONTEXT: protein: recombinant; tags: N-terminal 6xHis-TEV; chain copies: 2; label: 5' fluorescein on forward strand; blunt
pKd: −log10 of the molar value.
READOUT_LABEL: pKd

Request: Sample HMOX1 CsMBE 30-mer (dsDNA) DNA 1: CTCGGGACCGTGACTCAGCAGGAAAAACAC DNA 2: GTGTTTTTCCTGCTGAGTCACGGTCCCGAG — what was its pKd?
Response: ~6.69

Value source: paper PMC12561426
